Hey, just so you know, these numbers are from ChEMBL document CHEMBL1152944.

experiment: Cytotoxicity against mouse macrophage cells assessed as cell viability at 10 ug/100 ul after 72 hrs by MTT assay; type: cell-based; conditions: read-out: Activity
What viability at 72 h, 10 ug/100 ul was measured for each of the following?
A bare number is not enough; add the unit after it.

IN: Provide measured viability at 72 h, 10 ug/100 ul value, entry: CC(c1cc(F)ccc1Oc1nc2ccc(-n3cc(-c4ccccc4)nn3)cc2cc1Cc1ccccc1)n1ccnc1 (stereo not drawn)
OUT: 58%

IN: Provide measured viability at 72 h, 10 ug/100 ul value, entry: CC(O)c1cc(F)ccc1Oc1nc2ccc(NC(=O)Nc3cccc([N+](=O)[O-])c3)cc2cc1Cc1ccccc1 (stereo not drawn)
OUT: 53%

IN: Provide measured viability at 72 h, 10 ug/100 ul value, entry: COc1cccc(NC(=O)Nc2ccc3nc(Oc4ccc(F)cc4C(C)O)c(Cc4ccccc4)cc3c2)c1 (stereo not drawn)
OUT: 63%
